Please respond with reported viability at 24 h, 2.5 µM for every item in the list.
- protocol notes: Cytotoxicity against human Friedreich's ataxia lymphocytes assessed as cell viability by measuring live cells at 2500 nM after 24 hrs by calceinAM ester/ethidium homodimer-1 staining based flow cytometry (reference value: 88.2%)
- Design: species or system Friedreich's ataxia lymphocyte
- experimental context: read-out: Activity
Give bare numbers, in %.

Below are worked cases with known answers.
CCCCCCCCCCCc1cc2nc3ccc(N(C)C)cc3sc-2cc1=[N+](C)C.[I-] = 45.1
CCCCCc1cc2nc3ccc(N(C)C)cc3sc-2cc1=[N+](C)C.[I-] = 37.5
CCCCCCCCCCCCCCCCc1cc2nc3ccc(N(C)C)cc3sc-2cc1=[N+](C)C.[I-] = 87

Give viability at 24 h, 2.5 µM for each listed item.
1. CCCCCCCCCCCCCCCCCc1cc2nc3ccc(N(C)C)cc3sc-2cc1=[N+](C)C.[I-]
2. CCCCCCCCCCCCCCCc1cc2nc3ccc(N(C)C)cc3sc-2cc1=[N+](C)C.[I-]
3. CN(C)c1ccc2nc3ccc(=[N+](C)C)cc-3sc2c1 [METHYLENE BLUE ANHYDROUS]
4. CCCCCCCCCCCCCCCCCc1cc2nc3ccc(N4CCOCC4)cc3sc-2cc1=[N+]1CCOCC1.[I-]

a:
89.2
78.2
60.2
87.9

q: Query (compound): "CCCCCCCCCCCCCc1cc2nc3ccc(N(C)C)cc3sc-2cc1=[N+](C)C.[I-]" ; field requested: viability at 24 h, 2.5 µM
a: 41.3

---

- System: Friedreich's ataxia lymphocyte
- protocol notes: Increase in total ATP levels in human Friedreich's ataxia lymphocytes at 100 nM after 24 hrs by bioluminescence assay
- Type: functional, cell-based
Calls of active or inactive are those of the source. The calls are words filed in the database; no cut-off is given here.
property name: Activity

CCCCCCCCCCCCCc1cc2nc3ccc(N(C)C)cc3sc-2cc1=[N+](C)C.[I-] = inactive
CCCCCCCCCCCc1cc2nc3ccc(N(C)C)cc3sc-2cc1=[N+](C)C.[I-] = inactive
CN(C)c1ccc2nc3ccc(=[N+](C)C)cc-3sc2c1 [METHYLENE BLUE ANHYDROUS] = inactive
CCCCCc1cc2nc3ccc(N(C)C)cc3sc-2cc1=[N+](C)C.[I-] = inactive

---

- protocol notes: Cytotoxicity against human Friedreich's ataxia lymphocytes assessed as cell viability by measuring dead cells at 250 nM after 48 hrs by calceinAM ester/ethidium homodimer-1 staining based flow cytometry (reference value: 10.6%)
- experimental context: friedreich's ataxia lymphocyte, 0.25 µM
Please respond with reported Activity for every item in the list.
Numbers only, in %.

Below are worked cases with known answers.
CN(C)c1ccc2nc3ccc(N(C)C)cc3[s+]c2c1.[Cl-] [METHYLENE BLUE ANHYDROUS] = 22.5
CCCCCCCCCCCc1cc2nc3ccc(N(C)C)cc3sc-2cc1=[N+](C)C.[I-] = 14.2
CCCCCCCCCCCCCCCCCc1cc2nc3ccc(N(C)C)cc3sc-2cc1=[N+](C)C.[I-] = 12.2
CCCCCc1cc2nc3ccc(N(C)C)cc3sc-2cc1=[N+](C)C.[I-] = 21
CCCCCCCCCCCCCCCCCc1cc2nc3ccc(N4CCOCC4)cc3sc-2cc1=[N+]1CCOCC1.[I-] = 12.4

Give Activity for each listed item.
1. CCCCCCCCCCCCCCCCc1cc2nc3ccc(N(C)C)cc3sc-2cc1=[N+](C)C.[I-]
2. CCCCCCCCCCCCCCCc1cc2nc3ccc(N(C)C)cc3sc-2cc1=[N+](C)C.[I-]
3. CCCCCCCCCCCCCc1cc2nc3ccc(N(C)C)cc3sc-2cc1=[N+](C)C.[I-]

a:
[10.5, 14.5, 13.1]

---

- protocol notes: Cytotoxicity against human Friedreich's ataxia lymphocytes assessed as cell viability by measuring dead cells at 2500 nM after 48 hrs by calceinAM ester/ethidium homodimer-1 staining based flow cytometry (reference value: 10.6%)
- experimental context: friedreich's ataxia lymphocyte, 2.5 µM
property name: Activity

Below are worked cases with known answers.
CCCCCCCCCCCCCCCCCc1cc2nc3ccc(N(C)C)cc3sc-2cc1=[N+](C)C.[I-] = 13.5%
CCCCCc1cc2nc3ccc(N(C)C)cc3sc-2cc1=[N+](C)C.[I-] = 95.2%
CCCCCCCCCCCc1cc2nc3ccc(N(C)C)cc3sc-2cc1=[N+](C)C.[I-] = 83.5%

Give Activity for each listed item.
1. CN(C)c1ccc2nc3ccc(N(C)C)cc3[s+]c2c1.[Cl-] [METHYLENE BLUE ANHYDROUS]
2. CCCCCCCCCCCCCCCc1cc2nc3ccc(N(C)C)cc3sc-2cc1=[N+](C)C.[I-]
3. CCCCCCCCCCCCCCCCc1cc2nc3ccc(N(C)C)cc3sc-2cc1=[N+](C)C.[I-]
4. CCCCCCCCCCCCCc1cc2nc3ccc(N(C)C)cc3sc-2cc1=[N+](C)C.[I-]
5. CCCCCCCCCCCCCCCCCc1cc2nc3ccc(N4CCOCC4)cc3sc-2cc1=[N+]1CCOCC1.[I-]

a:
1: 84.3%; 2: 31.2%; 3: 18.6%; 4: 78%; 5: 20.8%
